target: JAK3 enzyme (Homo sapiens); assay: JAK Caliper Enzyme Assay at 4 μM ATP; format: biochemical
Give measured pIC50 for each item. Keep answers brief.
# log scale: pIC50 equals minus log10 of the concentration in mol/L

The compound "C=CC(=O)N1CCN(c2cnc3[nH]cc(C(=O)N[C@@H](C)COC)c3n2)CC1(C)C" showed pIC50 equal to 9.31

What the record says about "C=CC(=O)N1CCC(Oc2cnc3[nH]cc(-c4ncnn4CC)c3n2)CC1" : pIC50 is 8.16

Lab book: pIC50 of "C=CC(=O)N1CCC(C)(Nc2cnc3[nH]cc(C(=O)NCC)c3n2)CC1" noted as 8.99

Reported pIC50 ( "C=CC(=O)N1CCC(Nc2cnc3[nH]cc(C(=O)NCC(F)(F)C(F)(F)F)c3n2)CC1" ) = 9.22

pIC50 for "C=CC(=O)N1CCN(c2cnc3[nH]cc(C(=O)N[C@H](C)COc4ccccc4)c3n2)CC1(C)C" is 8.34

Consider C=CC(=O)N1CC[C@@H](Oc2cnc3[nH]cc(C(=O)N[C@@H](C)COC)c3n2)C[C@@H]1C (racemic) [Example 71] . Its measured pIC50 is 8.95

* * *

target: JAK3 enzyme (Homo sapiens, UniProt P52333); experiment: JAK Caliper Enzyme Assay at 4 μM ATP; type: biochemical
Sequence (P52333 whole entry, species assumed): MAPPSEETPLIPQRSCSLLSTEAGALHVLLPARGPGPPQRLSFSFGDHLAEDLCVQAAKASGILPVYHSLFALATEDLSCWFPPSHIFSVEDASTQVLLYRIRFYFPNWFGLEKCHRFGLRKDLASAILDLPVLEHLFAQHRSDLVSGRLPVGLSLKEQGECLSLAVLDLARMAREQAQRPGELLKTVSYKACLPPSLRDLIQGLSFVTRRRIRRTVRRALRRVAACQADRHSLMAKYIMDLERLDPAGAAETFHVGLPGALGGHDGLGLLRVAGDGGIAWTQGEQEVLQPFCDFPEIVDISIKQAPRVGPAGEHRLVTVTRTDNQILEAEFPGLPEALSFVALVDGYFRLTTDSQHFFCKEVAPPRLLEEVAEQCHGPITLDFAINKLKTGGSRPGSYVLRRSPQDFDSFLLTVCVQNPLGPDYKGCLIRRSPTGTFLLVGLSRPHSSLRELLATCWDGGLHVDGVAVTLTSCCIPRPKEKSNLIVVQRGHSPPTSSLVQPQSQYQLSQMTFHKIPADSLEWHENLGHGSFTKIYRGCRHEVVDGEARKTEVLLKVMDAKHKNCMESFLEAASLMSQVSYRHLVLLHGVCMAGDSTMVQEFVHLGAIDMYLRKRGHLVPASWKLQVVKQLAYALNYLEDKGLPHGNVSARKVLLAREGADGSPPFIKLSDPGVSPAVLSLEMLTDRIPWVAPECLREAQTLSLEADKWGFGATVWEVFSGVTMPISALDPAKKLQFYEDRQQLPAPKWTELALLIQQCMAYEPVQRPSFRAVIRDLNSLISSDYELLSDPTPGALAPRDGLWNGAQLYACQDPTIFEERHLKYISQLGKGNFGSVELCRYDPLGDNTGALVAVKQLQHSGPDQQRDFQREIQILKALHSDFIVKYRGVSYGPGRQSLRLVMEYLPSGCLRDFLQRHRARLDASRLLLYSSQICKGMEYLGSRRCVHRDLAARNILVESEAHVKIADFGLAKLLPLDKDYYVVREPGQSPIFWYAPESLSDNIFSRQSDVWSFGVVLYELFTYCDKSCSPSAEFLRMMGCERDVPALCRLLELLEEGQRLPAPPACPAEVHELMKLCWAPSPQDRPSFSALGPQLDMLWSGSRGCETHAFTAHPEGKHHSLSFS
Assay Endpoint: pIC50
Please express pIC50 as -log10 of the molar concentration.

Given item C=CC(=O)N1CCN(c2cnc3[nH]cc(C(=O)NCCC(F)(F)F)c3n2)C[C@@H]1CC(C)C [Example 329] , the value recorded as its pIC50 is 9.23

Given item C=CC(=O)N1CCC(Oc2cnc3[nH]cc(C(=O)NCC4(O)CCCC4)c3n2)CC1 (racemic) [Example 206] , the value recorded as its pIC50 is 8.55

Record summary for C=CC(=O)N1C[C@H](Nc2cnc3[nH]cc(C(=O)NCC)c3n2)[C@H](C2CC2)C1 [Example 261] : reported pIC50 = 6.59

Data point: C=CC(=O)N1CC[C@@H](Nc2cnc3[nH]cc(C(=O)N[C@@H]4C[C@H]4C(F)(F)F)c3n2)[C@@H](OC)C1 [Example 316] ; pIC50 = 9.19

Form field pIC50, entry C=CC(=O)N1CCC(Oc2cnc3[nH]cc(C(=O)N[C@H]4CC[C@@H](F)C4)c3n2)CC1 [Example 225] : 9.63

Entry under test: C=CC(=O)N1CC[C@H](Nc2cnc3[nH]cc(C(=O)NCC(C)CC(F)(F)F)c3n2)[C@H](OC)C1 (mixture of isomers) [Example 328] . Its pIC50 was 9.24

// pIC50 value for C=CC(=O)N1CC[C@H](Oc2cnc3[nH]cc(C(=O)NCC)c3n2)[C@@H](C)C1 (single isomer, unassigned) [Example 48] : 7.31

Field pIC50 (entry C=CC(=O)N1CC[C@@H](Oc2cnc3[nH]cc(C(=O)NCC)c3n2)[C@H](C)C1 (single isomer, unassigned) [Example 47] ) reads 8.93

For C=CC(=O)N1CCC(Oc2cnc3[nH]cc(C(=O)N[C@H]4CC[C@H](F)C4)c3n2)CC1 [Example 210] the molecule record lists pIC50 as 9.36

Input C=CC(=O)N1CCC(Oc2cnc3[nH]cc(C(=O)NCc4ccccc4)c3c2)CC1 [Example 342] . Output pIC50: 7.58

Entry C=CC(=O)N1CC[C@@H](Nc2cnc3[nH]cc(C(=O)N[C@@H](C)COC)c3n2)C[C@H]1C (stereo in doubt) [Example 56] — recorded pIC50 = 9.03

pIC50 reading for C=CC(=O)N1C[C@H](Nc2cnc3[nH]cc(C(=O)NCC)c3n2)C[C@H]1COC [Example 239] : 8.42

For record C=CC(=O)N1CC[C@H](OC)[C@H](Nc2cnc3[nH]cc(C(=O)N[C@H](C)COC)c3n2)C1 (single isomer, unassigned) [Example 6] the listed pIC50 is 8.00

Per the records, this molecule ( C=CC(=O)N1CC[C@@H](Oc2cnc3[nH]cc(C(=O)NCC)c3n2)C[C@@H]1C (racemic) [Example 77] ) has pIC50 equal to 9.15

Briefly, pIC50 measured for C=CC(=O)N1CCC(Nc2cnc3[nH]cc(C(=O)NCCC4CC4)c3n2)CC1 [Example 178] : 9.35

The molecule C=CC(=O)N1CCN(c2cnc3[nH]cc(C(=O)NC(CC)COC)c3n2)CC1(C)C (racemic) [Example 141] showed pIC50 equal to 9.10

Entry C=CC(=O)N1C[C@@H](Nc2cnc3[nH]cc(C(=O)N[C@@H](C)COC)c3n2)CC[C@H]1C (racemic) [Example 65] ; pIC50 = 8.99

pIC50 measured on C=CC(=O)N1CC(Nc2cnc3[nH]cc(C(=O)NCCC(F)(F)F)c3n2)C2(CC2)C1 (centres unmarked) [Example 252] = 6.96

Data point: C=CC(=O)N1CCN(c2cnc3[nH]cc(C(=O)NCCCC(F)(F)F)c3n2)CC1(C)C [Example 272] ; pIC50 = 8.42

Entry under test: C=CC(=O)N1CCC(Nc2cnc3[nH]cc(C(=O)NCc4ccc(CC)c(C)n4)c3n2)CC1 [Example 184] . Its pIC50 was 8.86

* * *

assay: Stability of JAK3 Covalent Inhibitors in Human Whole Blood; assay type: in vitro ADME; details: both sexes, 1 μM test compound, 37° C., 180 min incubation, read-out: Human blood stability t1/2
Assay Endpoint: half-life at 1 μM

The compound identified as C=CC(=O)N1CC[C@@H](Nc2cnc3[nH]cc(C(=O)N[C@@H](C)COC)c3n2)C[C@H]1C (stereo in doubt) registered its half-life at 1 μM at > 6 h

// sample C=CC(=O)N1C[C@H](Nc2cnc3[nH]cc(C(=O)N[C@@H](C)COC)c3n2)CC[C@@H]1C (single isomer, unassigned) , its half-life at 1 μM was > 6 h

Record "C=CC(=O)N1CCC(Nc2cnc3[nH]cc(C(=O)NCc4ccc(F)cc4)c3n2)CC1" . Reported half-life at 1 μM: > 6 h

The measured half-life at 1 μM associated with C=CC(=O)N1CC[C@@H](Oc2cnc3[nH]cc(C(=O)N[C@@H](C)COC)c3n2)C[C@@H]1C (racemic) [Example 71] reads 5.15 h

The reported value for C=CC(=O)N1CCCC1COc1cnc2[nH]cc(C(=O)N[C@@H](C)COC)c2n1 (mixture of isomers) in terms of half-life at 1 μM is 2.63 h

Entry "C=CC(=O)N1CC[C@H](Nc2cnc3[nH]cc(C(=O)NCCC(F)(F)F)c3n2)C1" ; half-life at 1 μM = 5.78 h

Entry C=CC(=O)N1CC[C@@H](Nc2cnc3[nH]cc(C(=O)NCC)c3n2)C1 (single isomer, unassigned) ; half-life at 1 μM = > 6 h

Entry "C=CC(=O)N1CCC(Oc2cnc3[nH]cc(C(=O)N[C@@H](C)CC)c3n2)CC1" , half-life at 1 μM reported as 4.17 h

half-life at 1 μM measured on "C=CC(=O)N1CCC(Nc2cnc3[nH]cc(C(=O)NCc4ccc(F)c(C#N)c4)c3n2)CC1" = > 6 h

C=CC(=O)N1C[C@@H](Nc2cnc3[nH]cc(C(=O)NCC)c3n2)CC[C@H]1C (single isomer, unassigned) [Example 75] yielded half-life at 1 μM of > 6 h

* * *

molecular target: JAK3 enzyme (Homo sapiens); assay: JAK Caliper Enzyme Assay at 1 mM ATP; format: biochemical
Field: IC50. Provide a value for each of the molecules that follow.

IC50 on JAK3 enzyme (Homo sapiens) for C=CC(=O)N1C[C@@H](Nc2ncnc3[nH]ccc23)CC[C@H]1COC (single isomer, unassigned) [Example 93] is > 3160 nM

Query C=CC(=O)N1C[C@H](Nc2ncnc3[nH]ccc23)CC[C@@H]1CNC(C)=O (racemic) [Example 88] on JAK3 enzyme (Homo sapiens); IC50 returned: 137 nM

Hey, JAK3 enzyme (Homo sapiens) data for C=CC(=O)N1CC(Nc2cnc3[nH]cc(C(=O)NCC)c3n2)C2(CC2)C1 (stereo not drawn) : IC50 came out at > 10000 nM

* * *

Exercise: state measured IC50 for each of the compounds provided.
molecular target: UniProt P52333; test: JAK Caliper Enzyme Assay at 4 μM ATP; type: biochemical
Numeric only. Scale: nM

Value of IC50 reported for the compound C=CC(=O)N1CC[C@@H](Nc2cnc3[nH]cc(C(=O)NCC)c3n2)[C@H](C)C1 (single isomer, unassigned) [Example 44] is 0.35

The compound identified as C=CC(=O)N1CCC(Oc2cnc3[nH]cc(C(=O)N[C@@H]4C[C@H]4C(F)(F)F)c3n2)CC1 [Example 216] registered its IC50 at 3.27

Reported IC50 ( C=CC(=O)N1CCC(Oc2cnc3[nH]cc(C(=O)N[C@@H]4CCC[C@@H]4F)c3n2)CC1 [Example 230] ) = 0.305

// recorded IC50 for C#CCOCCc1c[nH]c2ncnc(N[C@@H]3CC[C@H](C)N(C(=O)C=C)C3)c12 [Example 131] : 0.182

Sure, the documented IC50 for C=CC(=O)N1C[C@@H](CO)C[C@@H](Nc2ncnc3[nH]ccc23)C1 (single isomer, unassigned) [Example 98] is 1.26

# IC50 (compound: C=CC(=O)N1C[C@H](Nc2cnc3[nH]cc(C(=O)N[C@@H](C)COC)c3n2)CC[C@@H]1C (single isomer, unassigned) [Example 66] ) is 6.21
